- experiment notes: NCI Yeast Anticancer Drug Screen. Data for the rad14 strain (AID 159);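 further: 0% = growth of vehicle-treated control cultures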
- protocol conditions: S. cerevisiae rad14 strain growth inhibition; at 100.0 µM; hits give high values
This is part of a sample that, as a whole, favours compounds with a hit. Of some 79,000 tested, about 15% had one in any assay.
Entries annotated with measured growth inhibition

>  <entry smiles>
Cc1c(-c2ccccc2)[nH]c2ccccc12

>  <growth inhibition / %>
98

$$$$
>  <entry smiles>
O=C1c2cccc3cc([N+](=O)[O-])cc(c23)C(=O)N1CCN1CCCC1

>  <growth inhibition / %>
28

$$$$
>  <entry smiles>
O=C1C=CC(=O)N1c1ccc2c(c1)OCO2

>  <growth inhibition / %>
100

$$$$
>  <entry smiles>
Nc1ccc2c(c1)sc1ccccc12

>  <growth inhibition / %>
98

$$$$
>  <entry smiles>
COc1ccc(C(C#N)=C2C=CC(=NO)C=C2)cc1

>  <growth inhibition / %>
82

$$$$
